- Tested on: Hepatitis C virus
- Procedure details: Antiviral activity against Hepatitis C virus JFH-1 J6 genotype 2a infected in human Huh7.5 cells assessed as inhibition of viral RNA replication after 72 hrs by luciferase reporter gene assay
- Format: functional, organism-based, Hepacivirus hominis
- Measurement setup: subtype 2a JFH1 J6, Huh-7, 72 h
pEC50: −log10 of the molar value.
Quantity kind: pEC50

C/C(=C\c1c[nH]c2cc(Br)ccc12)C(=O)Nc1ccc(C(C)(C)C)cc1 ... 4.89
O=C(/C=C/c1c[nH]c2ccccc12)N1CCN(Cc2ccc(C(F)(F)F)cc2)CC1 ... 4.81
C/C(=C\c1c[nH]c2cc(C(C)C)ccc12)C(=O)Nc1ccc(C(C)(C)C)cc1 ... 5.82

(A) CCN(CC)C(=O)/C=C/c1c[nH]c2ccccc12
(B) CC(C)(C)c1ccc(NC(=O)/C=C/c2c[nH]c3ccccc23)cc1
(C) COc1ccc(CNC(=O)/C=C/c2c[nH]c3ccccc23)cc1OC
(D) C/C(=C\c1c[nH]c2ccc([N+](=O)[O-])cc12)C(=O)Nc1ccc(C(C)(C)C)cc1
stdin: Endpoint returns the given compounds ordered by ascending pEC50. Quick reminder: the answer is the labels in the order asked.
stdout: A, C, D, B
(A: 4.20, C: 4.89, D: 5.21, B: 5.72)

(a) C/C(=C\c1c[nH]c2ccc(C#N)cc12)C(=O)Nc1ccc(C(C)C)cc1
(b) CC(C)(C)c1ccc(NC(=O)CCc2c[nH]c3ccccc23)cc1
stdin: Endpoint returns the identifier whose pEC50 is numerically larger, either a or b . Pick one; state its label.
stdout: b

###

- Procedure details: Cytotoxicity against human Huh7.5 cells assessed as cell viability after 72 hrs by MTT assay
- Assay type: cell-based, Huh-7
Quantity kind: CC50 at 72 h (µM)
Number in µM, nothing else.

Completed entries (count: 4):
C/C(=C\c1c[nH]c2cc(C)ccc12)C(=O)Nc1ccc(C(C)(C)C)cc1 ... 25.6
CCOC(=O)/C(C)=C/c1c[nH]c2ccccc12 ... 25.3
C/C(=C\c1c[nH]c2cc(C(C)C)ccc12)C(=O)Nc1ccc(C(C)(C)C)cc1 ... 24.8
C/C(=C\c1c[nH]c2ccc(C#N)cc12)C(=O)Nc1ccc(C(C)(C)C)cc1 ... 61.8

Query `CC(C)(C)c1ccc(NC(=O)/C=C/c2c[nH]c3ccccc23)cc1` yields CC50 at 72 h of 10.1

Entry `C/C(=C\c1c[nH]c2cc(Br)ccc12)C(=O)Nc1ccc(C(C)(C)C)cc1` — recorded CC50 at 72 h = 68.8

CC50 at 72 h in this record for `C/C(=C\c1c[nH]c2ccccc12)C(=O)Nc1ccc(C(C)(C)C)cc1` : 17.3

Notebook: `COc1ccc(CNC(=O)/C=C/c2c[nH]c3ccccc23)cc1OC` , CC50 at 72 h read as 89.5

###

- Test system: Hepatitis C virus
- Procedure details: Antiviral activity against Hepatitis C virus JFH-1 J6 genotype 2a infected in human Huh7.5 cells assessed as inhibition of viral RNA replication after 72 hrs by luciferase reporter gene assay
- Type: functional, organism-based, Hepacivirus hominis
- Measurement setup: subtype 2a JFH1 J6, Huh-7, 72 h
pEC50: −log10 of the molar value.
Quantity kind: pEC50

Worked cases, pEC50 given:
C/C(=C\c1c[nH]c2ccccc12)C(=O)NCc1ccco1 ... 4.95
Clc1ccc(Cn2c(CN3CCCC3)nc3ccccc32)cc1 [CLEMIZOLE] ... 5.10
C/C(=C\c1c[nH]c2ccccc12)C(=O)Nc1ccc(C(C)(C)C)cc1 ... 5.66
C/C(=C\c1c[nH]c2ccc(C#N)cc12)C(=O)Nc1ccc(C(C)(C)C)cc1 ... 5.96

(A) CC(C)NC(=O)/C=C/c1c[nH]c2ccccc12
(B) C/C(=C\c1c[nH]c2ccc(C)cc12)C(=O)Nc1ccc(C(C)(C)C)cc1
stdin: Which of the two items, A and B , has the greater recorded pEC50? Kindly state the label of the option you pick.
stdout: B
(B: 5.17, A: 4.03)

(P) COc1cccc2[nH]cc(/C=C(\C)C(=O)Nc3ccc(C(C)(C)C)cc3)c12
(Q) C/C(=C\c1c[nH]c2ccccc12)C(=O)Nc1ccc(C(F)(F)F)cc1
stdin: Would you kindly point out which of P and Q has the smaller pEC50 figure? Refer to your chosen item by its label in the answer.
stdout: Q
(Q: 4.36, P: 4.75)
